Attribute: Raw data [w Enyzm]
biological target: Rlig1-AMP (Homo sapiens, UniProt Q8N999); construct: made in house; host or cells: E. coli BL21 (DE3), pET15b-Rlig1; assay: FRET-based high-throughput screening of inhibitors for Rlig1-AMP; assay type: biochemical; conditions: HTS hits; with enzyme
Sequence (Q8N999 whole entry): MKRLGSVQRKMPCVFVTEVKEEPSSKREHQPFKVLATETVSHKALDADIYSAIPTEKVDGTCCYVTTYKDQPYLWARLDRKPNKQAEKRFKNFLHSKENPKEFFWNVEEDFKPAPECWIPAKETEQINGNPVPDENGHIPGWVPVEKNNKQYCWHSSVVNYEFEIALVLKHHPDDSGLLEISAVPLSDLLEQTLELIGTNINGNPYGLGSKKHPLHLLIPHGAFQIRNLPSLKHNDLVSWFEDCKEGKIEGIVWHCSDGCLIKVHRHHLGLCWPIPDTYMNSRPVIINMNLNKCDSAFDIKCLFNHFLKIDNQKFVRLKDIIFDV
property-label: Raw data [w Enyzm]

compound	study-system	measured
CN(C)c1ccc2c(c1)Sc1cc(N(C)C)ccc1N2.CS(=O)(=O)O.CS(=O)(=O)O [Leucomethylene blue (mesylate)]	Rlig1-AMP (Homo sapiens, UniProt Q8N999)	4383
Cc1ccc(C(=O)Nc2ccc(S(=O)(=O)[O-])c3cc(S(=O)(=O)[O-])cc(S(=O)(=O)[O-])c23)cc1NC(=O)c1cccc(NC(=O)Nc2cccc(C(=O)Nc3cc(C(=O)Nc4ccc(S(=O)(=O)[O-])c5cc(S(=O)(=O)[O-])cc(S(=O)(=O)[O-])c45)ccc3C)c2)c1.[Na+].[Na+].[Na+].[Na+].[Na+].[Na+] [Suramin (sodium salt)]	Rlig1-AMP (Homo sapiens, UniProt Q8N999)	13348
C[n+]1ccc(/C=C/c2ccc3c(c2)c2cc(/C=C/c4cc[n+](C)cc4)ccc2n3CCOCCOCCOCC[N+]2(C)CCCCC2)cc1.[I-].[I-].[I-]	Rlig1-AMP (Homo sapiens, UniProt Q8N999)	3841
Cn1nc(-c2ccc(C(F)(F)F)cc2)nc2c(=O)n(C)c(=O)nc1-2	Rlig1-AMP (Homo sapiens, UniProt Q8N999)	16245
CCCCCOc1ccccc1/C(=C\SC)n1ccnc1.Cl [Neticonazole (hydrochloride)]	Rlig1-AMP (Homo sapiens, UniProt Q8N999)	9255
CC(C)N=C(N)c1ccc2nc(-c3ccc(OCc4cccc(COc5ccc(-c6nc7ccc(C(N)=NC(C)C)cc7[nH]6)cc5)c4F)cc3)[nH]c2c1	Rlig1-AMP (Homo sapiens, UniProt Q8N999)	5551
CC(=O)[C@]1(O)Cc2c(O)c3c(c(O)c2[C@@H](O[C@H]2C[C@H](N)[C@H](O)[C@H](C)O2)C1)C(=O)c1ccccc1C3=O.Cl [Idarubicin (hydrochloride)]	Rlig1-AMP (Homo sapiens, UniProt Q8N999)	5823
Cl.O=C1NCC2(CCN(CCc3ccccc3)CC2)O1 [Fenspiride (hydrochloride)]	Rlig1-AMP (Homo sapiens, UniProt Q8N999)	8551
NC[C@@H]1O[C@H](O[C@H]2[C@@H](O)[C@H](O[C@@H]3[C@@H](O)[C@H](N)C[C@H](N)[C@H]3O[C@H]3O[C@H](CN)[C@@H](O)[C@H](O)[C@H]3N)O[C@@H]2CO)[C@H](N)[C@@H](O)[C@@H]1O.O=S(=O)(O)O [Neomycin (sulfate)]	Rlig1-AMP (Homo sapiens, UniProt Q8N999)	7973
Cc1cnc(CNC(=O)c2c(=O)c3ccc(N4CCCN(C)CC4)nc3n3c2sc2ccccc23)cn1.Cl.Cl [CX-5461 dihydrochloride]	Rlig1-AMP (Homo sapiens, UniProt Q8N999)	7215
CC(/C=C/C=C(\C)C(=O)O[C@@H]1O[C@H](CO)[C@@H](O)[C@H](O)[C@H]1O)=C\C=C\C=C(C)\C=C\C=C(/C)C(=O)O[C@@H]1O[C@H](CO[C@@H]2O[C@H](CO)[C@@H](O)[C@H](O)[C@H]2O)[C@@H](O)[C@H](O)[C@H]1O	Rlig1-AMP (Homo sapiens, UniProt Q8N999)	3357

----------
experiment: Cell viability assay of HEK293 cells treated with inhibitors and menadione; format: cell-based, human; settings: human, HEK293 cells, 15 µM compound, w/o Menadione, 20240515 plate 014, DMSO Ko no Mendione = 100
property-label: viability at 15 µM

structure-notation	measured
Nc1nccc(Nc2ccc(NC(=O)c3ccc(Nc4ncnc5ccccc45)cc3)cc2)n1	88.1%
Cc1cc(Nc2ccc(NC(=O)c3ccc(Nc4ncnc5ccccc45)cc3)cc2)nc(N)n1	81.5%
Nc1cc(Nc2ccc(NC(=O)c3ccc(Nc4ccnc5ccccc45)cc3)cc2)ccn1	94.8%

----------
assay: Cell viability assay of HEK293 cells treated with inhibitors and menadione; format: cell-based, human; conditions: human, HEK293 cells, 15 µM compound, w/o Menadione, 20240515 plate 015, DMSO Ko no Mendione = 100

structure-notation	viability at 15 µM [%]
Nc1cc(Nc2ccc(NC(=O)c3ccc(Nc4ccnc5ccccc45)cc3)cc2)ccn1	94.9
Cc1cc(Nc2ccc(NC(=O)c3ccc(Nc4ncnc5ccccc45)cc3)cc2)nc(N)n1	84.3
Nc1nccc(Nc2ccc(NC(=O)c3ccc(Nc4ncnc5ccccc45)cc3)cc2)n1	86.8

----------
test: in vitro; conditions: human

compound	viability at 24 h, 0.46875 µM (%)
Nc1nccc(Nc2ccc(NC(=O)c3ccc(Nc4ncnc5ccccc45)cc3)cc2)n1	101
Cc1cc(Nc2ccc(NC(=O)c3ccc(Nc4ncnc5ccccc45)cc3)cc2)nc(N)n1	101
Cc1cc(Nc2ccc(NC(=O)c3ccc(Nc4ccnc5ccccc45)cc3)cc2)nc(N)n1 [Compound 1, SGI-1027, reference compound]	103
Nc1cc(Nc2ccc(NC(=O)c3ccc(Nc4ccnc5ccccc45)cc3)cc2)ccn1	99.9
Cc1cc(Nc2ccc(NC(=O)c3ccc(Nc4ccnc5[nH]ccc45)cc3)cc2)nc(N)n1	98.9

----------
test: Cell viability assay of HEK293 cells treated with inhibitors and menadione; assay type: cell-based, human; conditions: human, HEK293 cells, 60 µM compound, w/o Menadione, 20240508 plate 012, DMSO Ko no Mendione = 100
Attribute: viability at 60 µM

structure-notation	measurement-unit	viability at 60 µM
Nc1nccc(Nc2ccc(NC(=O)c3ccc(Nc4ncnc5ccccc45)cc3)cc2)n1	%	74.2
Nc1cc(Nc2ccc(NC(=O)c3ccc(Nc4ccnc5ccccc45)cc3)cc2)ccn1	%	82.1

----------
biological target: Rlig1-AMP (Homo sapiens, UniProt Q8N999); construct: made in house; host or cells: E. coli BL21 (DE3), pET15b-Rlig1; assay: FRET-based high-throughput screening of inhibitors for Rlig1-AMP; format: biochemical; conditions: HTS hits; with enzyme
property-label: Raw data [w Enyzm]

compound	property-label	measured
O=C1c2ccccc2-c2nc3nnnn3nc21.O=C1c2ccccc2-c2nn3nnnc3nc21 [KP372-1]	Raw data [w Enyzm]	14308
COc1cc(Cl)c(C(=O)N[C@@H](CN[C@H]2CC[C@@H](N)CC2)Cc2ccc(C#N)cc2)cc1-c1ccc(CN[C@H](C)c2ccc(C)cc2)o1 [BAY-850]	Raw data [w Enyzm]	10576
O=C(NCCCCCCCCCC[P+](c1ccccc1)(c1ccccc1)c1ccccc1)c1nn(Cc2ccc(Cl)cc2Cl)c2ccccc12.[Br-] [Mito-LND]	Raw data [w Enyzm]	5993
O=C(O)c1cc(O)c2c(c1)[C@@H]([C@H]1c3cc(C(=O)O)cc(O)c3C(=O)c3c(O[C@@H]4O[C@H](CO)[C@@H](O)[C@H](O)[C@H]4O)cccc31)c1cccc(O[C@@H]3O[C@H](CO)[C@@H](O)[C@H](O)[C@H]3O)c1C2=O [Sennoside B]	Raw data [w Enyzm]	3598
CN(C)C/C=C/C(=O)Nc1ccc(C(=O)N[C@@]2(C)CCC[C@@H](Nc3ncc(Cl)c(-c4c[nH]c5ccccc45)n3)C2)nc1 [Mevociclib]	Raw data [w Enyzm]	5749
CN1CCC(Nc2nc(Nc3ccc(Oc4ccccc4)cc3)c3c(=O)[nH]cc(Br)c3n2)CC1 [G-749]	Raw data [w Enyzm]	7489

----------
assay: in vitro; settings: human
Please respond with fulfilled when measured viability at 24 h, 7.5 µM is strictly beneath 90%, and with not fulfilled in all other cases.

compound	category-label
Cc1cc(Nc2ccc(NC(=O)c3ccc(Nc4ncnc5ccccc45)cc3)cc2)nc(N)n1	not fulfilled
Cc1cc(Nc2ccc(NC(=O)c3ccc(Nc4ccnc5[nH]ccc45)cc3)cc2)nc(N)n1	fulfilled
Nc1cc(Nc2ccc(NC(=O)c3ccc(Nc4ccnc5ccccc45)cc3)cc2)ccn1	not fulfilled
Nc1nccc(Nc2ccc(NC(=O)c3ccc(Nc4ncnc5ccccc45)cc3)cc2)n1	not fulfilled
Cc1cc(Nc2ccc(NC(=O)c3ccc(Nc4ccnc5ccccc45)cc3)cc2)nc(N)n1 [Compound 1, SGI-1027, reference compound]	fulfilled

----------
target: Rlig1-AMP (Homo sapiens, UniProt Q8N999); construct: made in house; host or cells: E. coli BL21 (DE3), pET15b-Rlig1; assay: Radioactive RNA ligation assay (hit validation, 10 µM test and IC50 determination); format: biochemical; conditions: radioactive ligation assay, 500 nM Rlig1-AMP, 20 min 37 °C, n = 3; read-out: IC50
pIC50: −log10 of the molar value.
Attribute: pIC50

compound	pIC50
Cc1cc(Nc2ccc(NC(=O)c3ccc(Nc4ccnc5ccccc45)cc3)cc2)nc(N)n1 [Compound 1, SGI-1027, reference compound]	5.40
Nc1nccc(Nc2ccc(NC(=O)c3ccc(Nc4ncnc5ccccc45)cc3)cc2)n1	5.34
Nc1nccc(Nc2ccc(NC(=O)c3ccc(Nc4ccnc5ccccc45)cc3)cc2)n1	5.35
Cc1cc(Nc2ccc(NC(=O)c3ccc(Nc4ncnc5ccccc45)cc3)cc2)nc(N)n1	5.15
CNc1nccc(Nc2ccc(NC(=O)c3ccc(Nc4ccnc5ccccc45)cc3)cc2)n1	5.48
Nc1nc(Nc2ccc(NC(=O)c3ccc(Nc4ccnc5ccccc45)cc3)cc2)cc(C(F)(F)F)n1	5.10

Every entry's value here was drawn from paper PMC11747885.
